targetOrSystem: SARS-CoV-2 prefusion stabilized trimer protein (WIV02 isolate spike protein) (UniProt P0DTC2 14-1213)
assayNotes: ELISA
Answer each item with its documented pEC50.
The scale used: pEC50 is minus the common logarithm of the concentration in molar units.

Answer with the recorded pEC50 of 9-K4-A (antibody, V domains shown) VH: QAYLQQSGAELVRPGASVKMSCKASGYTFPNYSFHWVKQTPRQGLEWIGAIYPGNDDTSYNQRFKGKATLTVDKSSSTAYMQLSSLTSEDSAVYFCARDYSNYPFDCWGQGTTLTVSS VL: DIVLTQSPASLAVSLGQRATISCRASKSVSTSGYSYMHWYQQKPGQPPKLLIYLASNLESGVPARFSGSGSGTDFTLNIHPVEEEDAATYYCQHSRELPPTFGGGTKLEIK only.
8.95

Report pEC50 for 6-C19-A (antibody, V domains shown) VH: EVQLQQSGPELVKPGASVKMSCKASGYTFTDYNIHWVKQSHGKSLEWIGYINPNNGGTDYNQKFQGKATLTVDKSSSTAYMELRSLTSEDSAVYYCARGGFYGNYGSYYGMDFWGQGTSVTVSS VL: DIQMTQSPASLSASVGETVTITCRTSENIYSHLAWYQQTQGKSPHLLVYNAKTLAEGVPSRFSGSGSGTQFSLKINSLQPEDFGSYFCQHHYGIPPEFGGGTKLEIK
9.31

Retrieve pEC50 measured for 4-N22-A (antibody, V domains shown) VH: QVQLQQPGTELVKPGASVKLSCKASGYTFTNYWMYWVKQRPGQGLDWIGNINPSNGGTNYNEKFKSKATLTVDKSSSTAYMQLSSLTSEDSAVYYCARETGNYWGQGTTLTVSS VL: DILMTQSPSSMSVSLGDTVSISCHASQGISSNIGWLQQKPGKSFKGLIYHGTNLEDGVPSRFSGSGSGADYSLTISSLESEDFADYYCVQYAQFPYTFGGGTKLEIK and print it.
7.75

For the binder 4-C3-A (antibody, V domains shown) VH: EVQLQQSGPELVKPGASVKISCKASGYSFTGYYMHWVKQSHGNILDWIGYIYPYNGVSSYNQKFKGKATLTVDKSSSTAYMELRSLTSEASAVYYCARAYGSSYDYYYGLDYWGQGTSVTVSS VL: DIVLTQSPASLAVSLGQRATISCKASQSVDYDGAGYMNWYQQKPGQPPKLLISSASNLQSGIPARFSGSGSGTDFTLNIHPVEEEDAATYYCQQSNDDPYTFGGGTKLEIK , give its reported pEC50.
9.27

Fill in pEC50 for record 9-P9-A (antibody, V domains shown) VH: DVKLVESGEGLVKPGGSLKLSCAASGFSFSNFGMSWVRQTPEKRLEWVAYISSGGDYIYYADTVKGRFTISRDNARNTLYLQMSSLKSEDTAIYYCTRGYFDYWGQGTTLTVSS VL: DVLMTQTPLSLPVSLGDQASISCRSSQSIVHSNGNTYLEWYLQKPGQSPKLLIYTVSNRFSGVPDRFSGSGSGTDFTLKISRVEAEDLGVYYCFQGSHVPYTFGGGTKLEMR
10.30
